The measurements presented in this section are drawn from patent US8575178B2.

Below: a set of entries, each annotated with reported inhibition at 1 µM.
Assay Target: rat TRPA1 (Rattus norvegicus)
Construct: expressed in transfected cells; host or cells: CHO cells (Zeocin selection)
Sequence (Q6RI86 whole entry): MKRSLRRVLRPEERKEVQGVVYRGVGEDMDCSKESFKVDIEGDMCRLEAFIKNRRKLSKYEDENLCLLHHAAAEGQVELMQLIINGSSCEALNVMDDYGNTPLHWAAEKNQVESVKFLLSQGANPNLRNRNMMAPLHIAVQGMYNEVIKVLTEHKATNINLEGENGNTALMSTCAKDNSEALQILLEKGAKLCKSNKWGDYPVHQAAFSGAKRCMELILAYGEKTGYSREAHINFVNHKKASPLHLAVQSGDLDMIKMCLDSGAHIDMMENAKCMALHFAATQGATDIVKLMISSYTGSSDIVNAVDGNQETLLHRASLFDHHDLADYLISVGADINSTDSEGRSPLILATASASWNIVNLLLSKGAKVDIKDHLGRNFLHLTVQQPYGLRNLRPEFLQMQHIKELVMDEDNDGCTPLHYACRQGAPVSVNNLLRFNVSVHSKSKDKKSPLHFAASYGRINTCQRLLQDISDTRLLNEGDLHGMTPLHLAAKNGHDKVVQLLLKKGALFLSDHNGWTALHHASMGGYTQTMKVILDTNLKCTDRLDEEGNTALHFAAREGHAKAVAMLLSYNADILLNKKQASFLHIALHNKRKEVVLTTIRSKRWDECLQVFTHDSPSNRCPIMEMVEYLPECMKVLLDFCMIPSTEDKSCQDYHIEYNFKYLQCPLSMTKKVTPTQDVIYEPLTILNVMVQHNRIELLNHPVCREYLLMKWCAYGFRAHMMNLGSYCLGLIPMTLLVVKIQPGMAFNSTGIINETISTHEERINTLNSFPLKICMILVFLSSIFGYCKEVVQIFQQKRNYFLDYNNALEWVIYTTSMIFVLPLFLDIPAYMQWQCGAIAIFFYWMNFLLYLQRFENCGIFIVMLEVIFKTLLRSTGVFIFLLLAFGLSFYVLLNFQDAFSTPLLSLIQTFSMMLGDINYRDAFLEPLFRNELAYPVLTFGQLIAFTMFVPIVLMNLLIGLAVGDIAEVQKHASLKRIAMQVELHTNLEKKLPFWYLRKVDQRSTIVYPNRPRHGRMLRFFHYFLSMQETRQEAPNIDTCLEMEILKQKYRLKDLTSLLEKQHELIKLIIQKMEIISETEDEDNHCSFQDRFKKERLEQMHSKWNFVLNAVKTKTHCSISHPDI
Experimental Details: 45Calcium uptake assay, inhibition of AITC induced calcium uptake in rat TRPA1 expressing CHO cells
Assay type: cell-based
Measurement Conditions: 1.0 μM compound, AITC 10 μM, read-out: rat TRPA1 Percentage inhibition at 1.0 μM
Recorded Metric: inhibition at 1 µM (%)

[
  {
    "Molecule": "Cn1c(=O)c2c(CC(=O)Nc3nc(-c4ccc(F)c(OC(F)(F)F)c4)cs3)nsc2n(C)c1=O [Example 24]",
    "Unit Name": "%",
    "Observed Value": 100
  },
  {
    "Molecule": "Cn1c(=O)c2c(CC(=O)Nc3nc(-c4cccc(C(F)(F)F)c4F)cs3)nsc2n(C)c1=O [Example 23]",
    "Unit Name": "%",
    "Observed Value": 100
  },
  {
    "Molecule": "Cn1c(=O)c2c(CC(=O)Nc3nc(-c4ccc(Cl)c(C(F)(F)F)c4)cs3)nsc2n(C)c1=O [Example 29]",
    "Unit Name": "%",
    "Observed Value": 100
  },
  {
    "Molecule": "Cn1c(=O)c2c(CC(=O)Nc3nc(-c4ccc(C(F)(F)F)c(F)c4)cs3)snc2n(C)c1=O [Example 4]",
    "Unit Name": "%",
    "Observed Value": 72.2
  },
  {
    "Molecule": "Cn1c(=O)c2c(CC(=O)Nc3nc(-c4cc(F)c(C(F)(F)F)c(F)c4)cs3)snc2n(C)c1=O [Example 10]",
    "Unit Name": "%",
    "Observed Value": 35.2
  },
  {
    "Molecule": "Cn1c(=O)c2c(CC(=O)Nc3nc(-c4ccc(OC(F)(F)F)c(F)c4)cs3)snc2n(C)c1=O [Example 7]",
    "Unit Name": "%",
    "Observed Value": 79.4
  },
  {
    "Molecule": "Cn1c(=O)c2c(CC(=O)Nc3nc(-c4ccc(Cl)c(OC(F)(F)F)c4)cs3)nsc2n(C)c1=O [Example 31]",
    "Unit Name": "%",
    "Observed Value": 99.6
  },
  {
    "Molecule": "Cn1c(=O)c2c(CC(=O)Nc3nc(-c4ccc(OC(F)(F)F)c(Cl)c4)cs3)nsc2n(C)c1=O [Example 30]",
    "Unit Name": "%",
    "Observed Value": 100
  },
  {
    "Molecule": "Cn1c(=O)c2c(CC(=O)Nc3nc(-c4ccc(C(F)(F)F)cc4F)cs3)nsc2n(C)c1=O [Example 21]",
    "Unit Name": "%",
    "Observed Value": 100
  },
  {
    "Molecule": "Cn1c(=O)c2c(CC(=O)Nc3nc(-c4cccc(C(F)(F)F)c4)cs3)snc2n(C)c1=O [Example 1]",
    "Unit Name": "%",
    "Observed Value": 71.3
  },
  {
    "Molecule": "Cn1c(=O)c2c(CC(=O)Nc3nc(-c4cc(Cl)cc(C(F)(F)F)c4)cs3)nsc2n(C)c1=O [Example 32]",
    "Unit Name": "%",
    "Observed Value": 99.8
  },
  {
    "Molecule": "Cn1c(=O)c2c(CC(=O)Nc3nc(-c4cccc(C(F)(F)F)c4)cs3)nsc2n(C)c1=O [Example 13]",
    "Unit Name": "%",
    "Observed Value": 99.3
  },
  {
    "Molecule": "Cn1c(=O)c2c(CC(=O)Nc3nc(-c4ccc(C(F)(F)F)c(F)c4F)cs3)nsc2n(C)c1=O [Example 39]",
    "Unit Name": "%",
    "Observed Value": 96.5
  },
  {
    "Molecule": "Cn1c(=O)c2c(CC(=O)Nc3nc(-c4ccc(C(F)(F)F)c(F)c4)cs3)nsc2n(C)c1=O [Example 19]",
    "Unit Name": "%",
    "Observed Value": 99.5
  },
  {
    "Molecule": "Cn1c(=O)c2c(CC(=O)Nc3nc(-c4ccc(F)c(C(F)(F)F)c4)cs3)nsc2n(C)c1=O [Example 20]",
    "Unit Name": "%",
    "Observed Value": 99.7
  }
]
